Tested on: HEK-293T
ASSAY_COMMENT: Multiplex assay against HEK293T
Format: toxicity, cell-based
SETUP_CONDITIONS: human, 24 h, 10 µM, compound concentration 10 uM, replicate 2
Recorded Population Mitotic Cells (%), one value per entry.
METRIC_NAME: Population Mitotic Cells (%)

# SMILES_STRING, METRIC_NAME, VALUE_UNITS, MEASURED
measured = [
    ("C=CC(=O)Nc1ccc2ncnc(Nc3ccc(OCc4cccc(F)c4)c(Cl)c3)c2c1.Cc1ccc(S(=O)(=O)O)cc1", "Population Mitotic Cells (%)", "%", 51),
    ("CCN(CC)CCCCNc1ncc2cc(-c3cc(OC)cc(OC)c3)c(NC(=O)NC(C)(C)C)nc2n1", "Population Mitotic Cells (%)", "%", 85),
    ("CN1CCN(CCOc2cc(OC3CCOCC3)c3c(Nc4c(Cl)ccc5c4OCO5)ncnc3c2)CC1", "Population Mitotic Cells (%)", "%", 11),
    ("OC1(c2ccc(Cl)cc2)CCN(Cc2c[nH]c3ccccc23)CC1", "Population Mitotic Cells (%)", "%", 10),
]

----------
Recorded Population Healthy Nuclei (%), one value per entry.
Test system: Fibroblast
ASSAY_COMMENT: Multiplex assay against human fibroblast
Assay type: toxicity, cell-based
SETUP_CONDITIONS: 48 h, 1 µM, compound concentration 1 uM, replicate 1
METRIC_NAME: Population Healthy Nuclei (%)

# COMPOUND, TESTED_SYSTEM, MEASURED
records = [
    ("CC[C@H](C)C(=O)O[C@H]1C[C@@H](C)C=C2C=C[C@H](C)[C@H](CC[C@@H]3C[C@@H](O)CC(=O)O3)[C@H]21", "Fibroblast", 39),
    ("Cl.N#Cc1ccc2[nH]cc(CCCCN3CCN(c4ccc5oc(C(N)=O)cc5c4)CC3)c2c1 [VILAZODONE HYDROCHLORIDE]", "Fibroblast", 53),
    ("CC(C)NCC(O)COc1ccc(CCOCC2CC2)cc1.Cl (centres undefined) [BETAXOLOL HYDROCHLORIDE]", "Fibroblast", 50),
    ("Cc1[nH]c(/C=C2\\C(=O)Nc3ccc(S(=O)(=O)N(C)c4cccc(Cl)c4)cc32)c(C)c1C(=O)N1CCN(C)CC1", "Fibroblast", 48),
]

----------
Test system: Fibroblast
ASSAY_COMMENT: Multiplex assay against human fibroblast
Type: toxicity, cell-based
SETUP_CONDITIONS: 24 h, 10 µM, compound concentration 10 uM, replicate 1
METRIC_NAME: Population Tubulin-Different-Phenotype (%)

# COMPOUND, MEASURED
measured = [
    ("C[C@@H](NCCCc1cccc(C(F)(F)F)c1)c1cccc2ccccc12.Cl [CINACALCET HYDROCHLORIDE]", 89),
    ("COc1cc2nccc(Oc3ccc(NC(=O)Nc4cc(C)on4)c(Cl)c3)c2cc1OC.O", 86),
    ("C=CC(=O)Nc1ccc2ncnc(Nc3ccc(OCc4cccc(F)c4)c(Cl)c3)c2c1.Cc1ccc(S(=O)(=O)O)cc1", 48),
    ("Cc1nc(-c2cn3c(n2)-c2ccc(-c4cnn(C(C)(C)C(N)=O)c4)cc2OCC3)n(C(C)C)n1", 1),
]

----------
System: U2OS
ASSAY_COMMENT: Multiplex assay against U2OS
Assay type: toxicity, cell-based
SETUP_CONDITIONS: human, 24 h, 1 µM, compound concentration 1 uM, replicate 2
Simple rule here: Population Healthy Nuclei (%) less than 80% is condition met, otherwise condition not met.

# COMPOUND, TESTED_SYSTEM, CATEGORY_LABEL
rows = [
    ("Cc1c(-c2ccc(O)cc2)n(Cc2ccc(OCCN3CCCCCC3)cc2)c2ccc(O)cc12", "U2OS", "condition met"),
    ("C=CC(=O)Nc1cccc(C(=O)Nc2ccc(Nc3cc(-c4[nH]c(SC)nc4C)ccn3)cc2)c1", "U2OS", "condition not met"),
    ("C[C@@H](NCCCc1cccc(C(F)(F)F)c1)c1cccc2ccccc12.Cl [CINACALCET HYDROCHLORIDE]", "U2OS", "condition met"),
    ("CC[C@H](C)C(=O)O[C@H]1C[C@@H](C)C=C2C=C[C@H](C)[C@H](CC[C@@H]3C[C@@H](O)CC(=O)O3)[C@H]21", "U2OS", "condition met"),
    ("Cn1cc(-c2[nH]c3cc(NC(=O)[C@H](N)C4CCCCC4)cc4c3c2C=NNC4=O)cn1", "U2OS", "condition met"),
    ("CN(C)CC#Cc1ccc(OCCCc2sc(N3CCc4cccc(C(=O)Nc5nc6ccccc6s5)c4C3)nc2C(=O)O)c(F)c1", "U2OS", "condition met"),
    ("Cc1nc(-c2ccc(-c3ccc(C(=O)N4CCc5cc6c(cc54)C4(CCN(C)CC4)CO6)cc3)c(C)c2)no1", "U2OS", "condition met"),
    ("C[C@@]1(C(=O)Nc2ccc(F)nc2)CCCN1c1nc(Nc2cc(C3CC3)n[nH]2)c2cccn2n1", "U2OS", "condition met"),
    ("COc1ncc(-c2ccc3nccc(-c4ccnnc4)c3c2)cc1NS(=O)(=O)c1ccc(F)cc1F", "U2OS", "condition met"),
    ("CN1CCC[C@@H]1CCO[C@](C)(c1ccccc1)c1ccc(Cl)cc1.O=C(O)/C=C/C(=O)O [CLEMASTINE FUMARATE]", "U2OS", "condition met"),
    ("C=CC(=O)Nc1cc2c(Nc3ccc(F)c(Cl)c3)ncnc2cc1OCCCN1CCOCC1.Cl.Cl [CANERTINIB DIHYDROCHLORIDE]", "U2OS", "condition met"),
    ("Cc1[nH]c(/C=C2\\C(=O)Nc3ccc(S(=O)(=O)N(C)c4cccc(Cl)c4)cc32)c(C)c1C(=O)N1CCN(C)CC1", "U2OS", "condition met"),
    ("CN(C)C(=O)/C(C#N)=C/c1ccc(-c2nc3cnc4[nH]ccc4c3n2C2CCCCC2)o1", "U2OS", "condition not met"),
    ("CN1CCN(c2ccc(OC(F)(F)F)c(Nc3ncc4c(n3)-c3c(c(C(N)=O)nn3CCO)CC4)c2)CC1", "U2OS", "condition met"),
    ("CNc1nc(NCc2ccc(NS(C)(=O)=O)cc2Cl)cc(-c2ccccn2)n1", "U2OS", "condition not met"),
    ("NC(=O)Nc1cc(-c2cccc(F)c2)sc1C(=O)N[C@H]1CCCNC1", "U2OS", "condition met"),
    ("Cc1nc(Nc2n[nH]c3c2CN(C(=O)N[C@H](CN(C)C)c2ccccc2)C3(C)C)c2sccc2n1", "U2OS", "condition met"),
    ("Cc1csc2c(N[C@@H](C)CN3CCN(S(=O)(=O)c4ccc(Cl)c(Cl)c4)CC3)ncnc12", "U2OS", "condition met"),
    ("OC1(c2ccc(Cl)cc2)CCN(Cc2c[nH]c3ccccc23)CC1", "U2OS", "condition not met"),
    ("CC(C)NCC(O)COc1ccc(CCOCC2CC2)cc1.Cl (centres undefined) [BETAXOLOL HYDROCHLORIDE]", "U2OS", "condition not met"),
    ("Cc1cc(C)cc(-c2cnc3cc(Cl)c(-c4cccc(O)c4)cc3c2OCCCN)c1", "U2OS", "condition met"),
    ("O=C1NCN(c2ccccc2)C12CCN(CCCOc1ccc(F)cc1)CC2 [SPIRAMIDE]", "U2OS", "condition not met"),
    ("CN1CCN(CCOc2cc(OC3CCOCC3)c3c(Nc4c(Cl)ccc5c4OCO5)ncnc3c2)CC1", "U2OS", "condition met"),
    ("COc1cc(-n2cnc3cc(-c4ccc(Cl)cc4)sc3c2=O)ccc1OCCN1CCCC1", "U2OS", "condition met"),
]

----------
Test system: U2OS
ASSAY_COMMENT: Multiplex assay against U2OS
Format: toxicity, cell-based
SETUP_CONDITIONS: human, 12 h, 10 µM, compound concentration 10 uM, replicate 1
Simple rule here: Population Membrane Permeable-Phenotype (%) less than 20% is true (1), otherwise false (0).

# COMPOUND, CATEGORY_LABEL
data = [
    ("Cl.N#Cc1ccc2[nH]cc(CCCCN3CCN(c4ccc5oc(C(N)=O)cc5c4)CC3)c2c1 [VILAZODONE HYDROCHLORIDE]", "false (0)"),
    ("Cc1nc(Nc2n[nH]c3c2CN(C(=O)N[C@H](CN(C)C)c2ccccc2)C3(C)C)c2sccc2n1 [PF-03758309]", "true (1)"),
    ("Cc1csc2c(N[C@@H](C)CN3CCN(S(=O)(=O)c4ccc(Cl)c(Cl)c4)CC3)ncnc12", "false (0)"),
    ("O=C1NCN(c2ccccc2)C12CCN(CCCOc1ccc(F)cc1)CC2 [SPIRAMIDE]", "true (1)"),
    ("Cn1c(-c2csc(C3CCN(CC4=NC5N=CC=CC5N4)CC3)n2)nc2ccccc21 (stereo unspecified) [BAY-070]", "true (1)"),
    ("CCN(CC)CCCCNc1ncc2cc(-c3cc(OC)cc(OC)c3)c(NC(=O)NC(C)(C)C)nc2n1 [PD-173074]", "false (0)"),
    ("c1cn2cc(-c3ccc4cn[nH]c4c3)nc(Nc3ccc(N4CCOCC4)cc3)c2n1 [ENTOSPLETINIB]", "true (1)"),
    ("Cc1cc(C)cc(-c2cnc3cc(Cl)c(-c4cccc(O)c4)cc3c2OCCCN)c1", "false (0)"),
    ("CN(C)C(=O)N[C@H]1CC[C@H](CCN2CCN(c3cccc(Cl)c3Cl)CC2)CC1.Cl [CARIPRAZINE HYDROCHLORIDE]", "true (1)"),
    ("CC(C)NCC(O)COc1ccc(CCOCC2CC2)cc1.Cl (stereo unspecified) [BETAXOLOL HYDROCHLORIDE]", "true (1)"),
    ("CN1CCCC(n2nc(Cc3ccc(Cl)cc3)c3ccccc3c2=O)CC1.Cl (stereo unspecified) [AZELASTINE HYDROCHLORIDE]", "false (0)"),
    ("COc1ncc(-c2ccc3nccc(-c4ccnnc4)c3c2)cc1NS(=O)(=O)c1ccc(F)cc1F [OMIPALISIB]", "true (1)"),
    ("COc1cccc([C@@H](C)NCCCc2ccccc2Cl)c1.Cl [TECALCET HYDROCHLORIDE]", "true (1)"),
    ("Cc1[nH]c(/C=C2\\C(=O)Nc3ccc(S(=O)(=O)N(C)c4cccc(Cl)c4)cc32)c(C)c1C(=O)N1CCN(C)CC1", "false (0)"),
    ("CN(C)CC#Cc1ccc(OCCCc2sc(N3CCc4cccc(C(=O)Nc5nc6ccccc6s5)c4C3)nc2C(=O)O)c(F)c1 [A-1155463]", "true (1)"),
    ("COc1cc(-n2cnc3cc(-c4ccc(Cl)cc4)sc3c2=O)ccc1OCCN1CCCC1", "false (0)"),
]
